Each record here notes measured pest or weed control at 125 g/ha.
Tested on: kochia (Kochia scoparia)
Assay: Test C postemergence
Assay type: in vivo
Settings: Bassia scoparia, post-emergence; Postemergence, 125 g ai/ha, scale 0 to 100; read-out: Plant response rating, Kochia
Report as a plain number; the unit % is understood.

Reference set (5 entries):
{"columns": ["Chemical Structure", "Uom", "Data Value"],
 "data": [
  ["Fc1cccc(Oc2ncc(Cl)cn2)c1Oc1ccc(Cl)nc1", "%", 90],
  ["Fc1cnc(Oc2c(F)ccc(F)c2Oc2ncc(F)cn2)nc1", "%", 95],
  ["FC(F)c1cccc(Oc2ncc(Cl)cn2)c1Oc1ncc(Cl)cn1", "%", 100],
  ["Fc1cccc(Oc2ncc(C(F)(F)F)cn2)c1Oc1ncc(Cl)cn1", "%", 100],
  ["N#Cc1cccc(Oc2ncc(Cl)cn2)c1Oc1ncc(C(F)(F)F)cn1", "%", 95]
]}

Entry `Fc1cnc(Oc2c(F)cccc2Oc2ncc(Cl)cn2)nc1` , system kochia (Kochia scoparia): what pest or weed control at 125 g/ha was measured?
80

Entry `N#Cc1cccc(Oc2ncc(Cl)cn2)c1Oc1ncc(Br)cn1` , system kochia (Kochia scoparia): what pest or weed control at 125 g/ha was measured?
100

----------
Tested on: barnyardgrass (Echinochloa crus-galli)
Assay: Test A postemergence
Format: in vivo
Details: Echinochloa crus-galli, post-emergence, 240 h, 31 g ai/ha, 0 to 100 scale, read-out: Plant response rating, Barnyardgrass
Property: pest or weed control at 31 g/ha (%)
Report as a plain number; the unit % is understood.

Reference set (3 entries):
{"columns": ["Chemical Structure", "pest or weed control at 31 g/ha (%)"],
 "data": [
  ["Fc1ccc(F)c(Oc2ncc(Cl)cn2)c1Oc1ncc(Cl)cn1", 0],
  ["N#Cc1cccc(Oc2ncc(Br)cn2)c1Oc1ccc(Cl)cn1", 0],
  ["N#Cc1cccc(Oc2ncc(Cl)cn2)c1Oc1cccnc1", 0]
]}

Which pest or weed control at 31 g/ha is reported for this molecule? `FC(F)c1cccc(Oc2ncc(Br)cn2)c1Oc1ncc(Cl)cn1`
40

----------
Tested on: waterhemp (common waterhemp, Amaranthus rudis)
Test: Test C postemergence
Type: in vivo
Details: Amaranthus tuberculatus, post-emergence; Postemergence, 250 g ai/ha, scale 0 to 100; read-out: Plant response rating, Waterhemp
Property: pest or weed control at 250 g/ha (%)
Report as a plain number; the unit % is understood.

Reference set (3 entries):
{"columns": ["Chemical Structure", "Uom", "Data Value"],
 "data": [
  ["Fc1cnc(Oc2c(Cl)cccc2Oc2ncc(Cl)cn2)nc1", "%", 98],
  ["Fc1cccc(Oc2ncc(Cl)cn2)c1Oc1ccc(Cl)nc1", "%", 95],
  ["N#Cc1cccc(Oc2ncc(Cl)cn2)c1Oc1ncc(Cl)cn1", "%", 98]
]}

We now examine a further compound.
Which pest or weed control at 250 g/ha is reported for this compound? `Fc1cnc(Oc2c(F)cccc2Oc2ncc(Cl)cn2)nc1`
98

----------
Each record here notes measured plant injury at 125 g/ha.
Tested on: soybean (Glycine max)
Test: Test C postemergence
Assay type: in vivo
Details: Glycine max, post-emergence; Postemergence, 125 g ai/ha, scale 0 to 100; read-out: Plant response rating, Soybean
Kindly write the number and append the unit.

Which plant injury at 125 g/ha is reported for this compound? `N#Cc1cccc(Oc2ncc(Cl)cn2)c1Oc1cnc(Cl)cn1`
85%

Which plant injury at 125 g/ha is reported for this compound? `N#Cc1cccc(Oc2ncc(Cl)cn2)c1Oc1ncc(Br)cn1`
70%

Which plant injury at 125 g/ha is reported for this compound? `Fc1cnc(Oc2c(F)cccc2Oc2ncc(Cl)cn2)nc1`
90%

Which plant injury at 125 g/ha is reported for this compound? `N#Cc1cccc(Oc2ncc(Cl)cn2)c1Oc1ccc(Cl)cn1`
55%

Which plant injury at 125 g/ha is reported for this compound? `FC(F)c1cccc(Oc2ncc(Cl)cn2)c1Oc1ncc(Cl)cn1`
80%
